# System: A549 NSCLC
# method: NCI tumour cell line growth inhibition, 48 h
quantity: TGI

Returns the measured TGI for the input compound. Input: `CCNc1cc2c3c(c1)CCCN3CCC2`
35.9 µM

Returns the measured TGI for the input compound. Input: `CCCCNC(=S)c1ccc(OC(=O)Nc2ccc(Cl)cc2)cc1`
> 100 µM

Returns the measured TGI for the input compound. Input: NNC(=O)CCC(NS(=O)(=O)c1ccc(Cl)cc1)C(=O)NN (stereo not given)
> 100 µM

Returns the measured TGI for the input compound. Input: `Cc1c(O)c(=O)ccn1CCc1c[nH]c2ccccc12`
> 100 µM

Returns the measured TGI for the input compound. Input: Cc1ccc(C(=O)C2=CN=C3C(=O)N(c4ccccc4)N(C)C3(C)C2=N)cc1 (stereo not given)
> 100 µM

Returns the measured TGI for the input compound. Input: `CCCCOC(=O)c1ccc(NC(=O)CCl)cc1`
22.8 µM

Returns the measured TGI for the input compound. Input: `CSC1(SC)N2Cc3ccccc3N=C2C1(c1ccccc1)c1ccccc1`
> 100 µM

Returns the measured TGI for the input compound. Input: `COc1ccc(S(=O)(=O)Nc2ccc(-c3csc(N4C(=O)/C(=C/c5ccccc5)N=C4c4ccccc4)n3)cc2)cc1Cl`
> 100 µM

Returns the measured TGI for the input compound. Input: `O=[N+]([O-])c1ccc2nc(/C=C(\O)c3ccccc3)c(/C=C(\O)c3ccccc3)nc2c1`
> 58.5 µM

Returns the measured TGI for the input compound. Input: CCCC(=O)Nc1cc(/C=C/C(=O)N2CC(CCl)c3c2cc([N+](=O)[O-])c2ccccc32)n(C)c1 (stereo not given)
> 100 µM

* * *

# System: SN12C renal
# method: NCI tumour cell line growth inhibition, 48 h
Where a SMILES comes first, the peptide text is derived from it. [ ]: non-standard residue; d: D form. The star is where a group is joined. ξ: configuration not given here. Propanoyl(3-(4-MeO-Ph)) = COc1ccc(CCC(=O)*)cc1; Thr(3ξ) = CC(O)[C@H](N)C(=O)O; dNMeL = CN[C@H](CC(C)C)C(=O)O; ξLac = CC(O)C(=O)O
quantity: TGI

Returns the measured TGI for the input compound. Input: O=C1[C@H]2ON(c3ccccc3)C(c3ccccc3F)[C@H]2C(=O)N1c1ccc(Cc2ccc(N3C(=O)[C@@H]4ON(c5ccccc5)C(c5ccccc5F)[C@@H]4C3=O)cc2)cc1 (stereo partly drawn)
> 100 µM

Returns the measured TGI for the input compound. Input: `c1ccc(Nn2c(CCCCCCCCc3nnc(COc4ccccc4)n3Nc3ccccc3)nnc2COc2ccccc2)cc1`
> 300 µM

Returns the measured TGI for the input compound. Input: `COc1cc([C@@H]2c3cc4c(cc3[C@@H](N=Cc3ccc(C(=O)O[C@@H](C(=O)O[C@H]5C[C@@]6(O)[C@@H](OC(=O)c7ccccc7)[C@@H]7[C@]8(OC(C)=O)CO[C@@H]8C[C@H](O)[C@@]7(C)C(=O)[C@H](OC(C)=O)C(=C5C)C6(C)C)[C@@H](NC(=O)c5ccccc5)c5ccccc5)cc3)[C@H]3COC(=O)[C@H]23)OCO4)cc(OC)c1O`
> 50 µM

Returns the measured TGI for the input compound. Input: `Cn1c(N=[N+]=[N-])cc(=O)n(C)c1=O`
> 100 µM

Returns the measured TGI for the input compound. Input: `COc1ccc2c(c1)c1nc3cc(C)c(C)cc3nc1n2CCN(C)C`
1.99 µM

Returns the measured TGI for the input compound. Input: COC(=O)[C@@H](NC(=O)[C@@H](CC(C)C)N(C)C(=O)[C@@H]1CCCN1C(=O)C(C)O)C(C)OC(=O)CCc1ccc(OC)cc1 (stereo partly drawn) (H-[ξLac]P[dNMeL][Thr(3ξ)](Propanoyl(3-(4-MeO-Ph)))-OMe)
> 100 µM

Returns the measured TGI for the input compound. Input: `O=C(CCc1ccc(O)c(O)c1)NCCc1ccc(O)c(O)c1`
> 100 µM

Returns the measured TGI for the input compound. Input: Nc1nc(NC2C=C(CO)C(O)C2O)c([N+](=O)[O-])c(=O)[nH]1 (stereo not drawn)
> 100 µM

Returns the measured TGI for the input compound. Input: CCOC(=O)C1C[C@H]2CO[C@H](c3ccccc3)N2C1=O (stereo partly drawn)
> 100 µM

Returns the measured TGI for the input compound. Input: CC1(C)O[C@H]2OC(CO)C(OS(C)(=O)=O)[C@H]2O1 (stereo partly drawn)
> 100 µM

Returns the measured TGI for the input compound. Input: O=C(NN1C(=O)CSC1c1ccco1)c1ccncc1 (stereo not drawn)
> 100 µM

Returns the measured TGI for the input compound. Input: `COc1cc(/C=c2/c3ccccc3n3c2cc(-c2ccccc2)[n+]3C)cc(OC)c1OC`
12 µM

Returns the measured TGI for the input compound. Input: `Cn1cc(-c2nc(-c3c[nH]c4ccncc34)cs2)c2cc(F)ccc21`
3.32 µM

Returns the measured TGI for the input compound. Input: Nc1nn(CC(O)CO)c(=O)s1 (stereo not drawn)
> 100 µM

Returns the measured TGI for the input compound. Input: `CCOc1ccc2nc(-c3cccc(OCC(=O)NC(C)C)c3)nc(Nc3ccc(-c4cn[nH]c4)cc3)c2c1`
3.76 µM

Returns the measured TGI for the input compound. Input: Cc1ccc(C(=O)/C(=C\c2ccc([N+](=O)[O-])cc2)S(=O)Cc2ccc(F)cc2)cc1 (stereo not drawn)
3.42 µM

Returns the measured TGI for the input compound. Input: `COc1nc2ccc(CNc3ccc(C(=O)O)cc3)cc2nc1OC`
> 10 µM

Returns the measured TGI for the input compound. Input: `COc1ccc(/C=N\NC(=O)Nc2cccc3ccccc23)cc1`
> 100 µM
